# test_target: SARS-CoV-2 nsp12/7/8 (RTC) complex (Severe acute respiratory syndrome coronavirus 2)
# experimental_protocol: biochemical
# Type: biochemical
# cond: read-out: IC50: compound concentration required to inhibit by 50% the SARS-CoV-2 RTC enzymatic activity
pIC50: −log10 of the molar value.
// pIC50 lookup, one value per entry

Incoming: Field request: pIC50 | item: CC(C)(O)CC[C@H]1OC(C)(C)O[C@]1(C)[C@H]1CC[C@@]2(O)C3=CC(=O)[C@@H]4C[C@@H](O)[C@@H](O)C[C@]4(C)[C@H]3CC[C@]12C [20-Hydroxyecdysone 20,22-acetonide]
Outgoing: < 4.00

Incoming: Which value of pIC50 has been reported for C=C(C)[C@@H]1CC[C@]2(C)CC[C@]3(C)[C@H](CC[C@@H]4[C@@]5(C)CC[C@H](OC(C)=O)C(C)(C)[C@@H]5CC[C@]43C)[C@@H]12 [Lupeol Acetate] in the records?
Outgoing: < 4.00

Incoming: Quick check: pIC50 of C[C@H]1CC[C@@H]2N(C1)C[C@H]1[C@@H]3C[C@H]4[C@@H](CC(=O)[C@H]5C[C@@H](O[C@@H]6O[C@H](CO)[C@@H](O)[C@H](O)[C@H]6O)CC[C@@]54C)[C@@H]3CC[C@H]1[C@]2(C)O [Imperialine 3-beta-D-glucoside] ?
Outgoing: < 4.00

Incoming: // lookup pIC50 for O=C(NCC(O)CNC(=O)/C(=C\c1ccco1)NC(=O)c1ccccc1)/C(=C\c1ccco1)NC(=O)c1ccccc1
Outgoing: 4.05

Incoming: Please give the measured pIC50 for this compound: CC1(C)[C@@H](O)CC[C@]2(C)[C@H]3CC=C4[C@@H]5C[C@@]6(C)C[C@H](OC6=O)[C@]5(C)CC[C@@]4(C)[C@]3(C)CC[C@@H]12 [Wilforlide A]
Outgoing: < 4.00

Incoming: Recorded pIC50 of CC(C)[C@@H](NC(=O)C1(c2ccccc2)CCN(C(=O)OC(C)(C)C)CC1)C(=O)N[C@@H](C(=O)O)c1ccccc1 , please.
Outgoing: < 4.00

Incoming: I am curious: what pIC50 value has been reported for CC(C)C1=C2[C@H]3CC[C@@H]4[C@@]5(C)CC[C@H](OC(=O)CC(C)(C)C(=O)O)C(C)(C)[C@@H]5CC[C@@]4(C)[C@]3(C)CC[C@@]2([C@@H](O)CN(CCN(C)C)Cc2ccc(Cl)cc2)CC1=O [Gsk-2838232, reference compound] ?
Outgoing: < 4.00

Incoming: Give its pIC50 value. Item: O=C(c1ccccc1Cl)c1cccnc1-c1nnn(Cc2cc(C(F)(F)F)cc(C(F)(F)F)c2)c1-c1ccncc1 [Tradipitant, reference compound]
Outgoing: < 4.00

Incoming: Item C[C@H]1O[C@@H](O[C@H]2CC[C@@]3(C)[C@@H](CC[C@]4(C)[C@@H]3C=CC3=C5CC(C)(C)CC[C@]5(CO)[C@H](O)C[C@]34C)[C@]2(C)CO)[C@H](O)[C@@H](O[C@@H]2O[C@H](CO)[C@@H](O)[C@H](O)[C@H]2O)[C@H]1O has what recorded pIC50?
Outgoing: 4.26

Incoming: # get_value(readout='pIC50', item= CC(C)=CCC[C@@](C)(O)[C@H]1CC[C@]2(C)[C@@H]1[C@H](O)C[C@@H]1[C@@]3(C)CC[C@H](O[C@@H]4O[C@H](CO)[C@@H](O)[C@H](O)[C@H]4O)C(C)(C)[C@@H]3CC[C@]12C [20(R)-Ginsenoside Rh2] )
Outgoing: < 4.00

meta.source: paper PMC12519464
